# Tested on: 192522-019-R-J2-PDC complex tumor spheroid viability
# Assay: Anticancer human tumor 192522-019-R-J2-PDC patient-derived colon adenocarcinoma cell line growth inhibition [POLQ]
# Study Conditions: second compound 1 µM; first compound 0.0316 µM; stronger effect = lower value
The compounds listed here are annotated with their viability, T/C.
Field: numeric (%). Do not append units.

Worked cases, answers included:
* O=C(c1cc(Cc2n[nH]c(=O)c3ccccc23)ccc1F)N1CCN(C(=O)C2CC2)CC1 + COC1C(OC(N)=O)C(O)C(Oc2ccc3c(O)c(NC(=O)c4ccc(O)c(CC=C(C)C)c4)c(=O)oc3c2C)OC1(C)C | 99.7
* CCCS(=O)(=O)Nc1ccc(F)c(C(=O)c2c[nH]c3ncc(-c4ccc(Cl)cc4)cc23)c1F + Nc1ccc(C#CCN(C(=O)Cc2ncc(C(F)(F)F)cc2C(F)(F)F)c2ccc(F)cc2)nn1 | 98
* CNCc1ccc(-c2[nH]c3cc(F)cc4c3c2CCNC4=O)cc1 + Cc1cccc(N(C)C(=O)C2C(O)CCN2c2nc(C)cc(C(F)(F)F)c2C#N)c1 | 108
* C#Cc1c(F)ccc2cc(O)cc(-c3ncc4c(N5CC6CCC(C5)N6)nc(OCC56CCCN5CC(F)C6)nc4c3F)c12 (stereo not given) + COC1C(OC(N)=O)C(O)C(Oc2ccc3c(O)c(NC(=O)c4ccc(O)c(CC=C(C)C)c4)c(=O)oc3c2C)OC1(C)C | 94.8

Consider the additional compound presented here.
Request: Given the compound C#Cc1c(F)ccc2cc(O)cc(-c3ncc4c(N5CC6CCC(C5)N6)nc(OCC56CCCN5CC(F)C6)nc4c3F)c12 (stereo not given) + Nc1ccc(C#CCN(C(=O)Cc2ncc(C(F)(F)F)cc2C(F)(F)F)c2ccc(F)cc2)nn1 , what is its reported viability, T/C?
Response: 89.5

###

# System: 192522-019-R-J2-PDC complex tumor spheroid viability
# Assay: Anticancer human tumor 192522-019-R-J2-PDC cell line growth inhibition [POLQ];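 further: spheroids exposed to drugs for seven days before reading; 100% = DMSO vehicle control viability in luminescence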
# Study Conditions: second compound 3.16 µM; first compound 10 µM; stronger effect = lower value
The compounds listed here are annotated with their viability, T/C.
Field: numeric (%). Do not append units.

• COc1cc(C2c3cc4c(cc3C(OC3OC5COC(C)OC5C(O)C3O)C3COC(=O)C23)OCO4)cc(OC)c1O (stereo not given) + Nc1ccc(C#CCN(C(=O)Cc2ncc(C(F)(F)F)cc2C(F)(F)F)c2ccc(F)cc2)nn1 = 76.1
• CCc1cc2c(N3CCc4c(cc(Cn5ccnc5)cc4-c4cn(C)nc4C(F)(F)F)C3=O)ccnc2c(OC)n1 + Cc1cccc(N(C)C(=O)C2C(O)CCN2c2nc(C)cc(C(F)(F)F)c2C#N)c1 = 82.3
• CC1COCCN1c1cc(C2(S(C)(=N)=O)CC2)nc(-c2ccnc3[nH]ccc23)n1 (stereo not given) + Cc1cccc(N(C)C(=O)C2C(O)CCN2c2nc(C)cc(C(F)(F)F)c2C#N)c1 = 41.4
• CCCS(=O)(=O)Nc1ccc(F)c(C(=O)c2c[nH]c3ncc(-c4ccc(Cl)cc4)cc23)c1F + COC1C(OC(N)=O)C(O)C(Oc2ccc3c(O)c(NC(=O)c4ccc(O)c(CC=C(C)C)c4)c(=O)oc3c2C)OC1(C)C = 117

Request: Given the compound C=CC(=O)N1CCN(c2nc(=O)n(-c3c(C)ccnc3C(C)C)c3nc(-c4c(O)cccc4F)c(F)cc23)C(C)C1 (stereo not given) + Nc1ccc(C#CCN(C(=O)Cc2ncc(C(F)(F)F)cc2C(F)(F)F)c2ccc(F)cc2)nn1 , what is its reported viability, T/C?
Response: 106
